Target: recombinant human IL-1B (human, UniProt P01584 117-269)
Assay: cell-based or functional assay
measure: IC50, rec. human IL-1 B, MRC-5 (IL-6 production) (nM)
Use nM as the unit, but write only the number.

See these solved cases before continuing.
Field request: IC50, rec. human IL-1 B, MRC-5 (IL-6 production) | item: Antibody B1 (antibody, V domains shown) VH: EVQLVQSGAEVKKPGASVKVSCKASGFSFTGYYMHWVRQAPGQGLEWVGLIIPHNDYTVNNQKFKGRVTMTRDTSTSTAYMELSSLRSEDTAVYYCARSDYYGAMDYWGQGTLVTVSS VL: EIVMTQSPATLSVSPGERATLSCRASQNIGTSIHWYQQKPGQAPRLLIKYASNSIYGIPARFSGSGSGTEFTLTISSLQSEDIAVYYCQQGASWPPFTFGQGTKLEIK
0.013

Also need Antibody B3 (antibody, V domains shown) VH: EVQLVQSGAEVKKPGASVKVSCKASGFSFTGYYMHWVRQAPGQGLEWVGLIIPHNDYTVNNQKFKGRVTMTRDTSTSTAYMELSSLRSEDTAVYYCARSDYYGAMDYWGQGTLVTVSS VL: EIVMTQSPATLSVSPGERATLSCRASQNIGTSIHWYQQKPGQAPRLLIKYASDSVYGIPARFSGSGSGTEFTLTISSLQSEDIAVYYCQQGASWPPFTFGQGTKLEIK , thanks.
0.008

More entries:
Field request: IC50, rec. human IL-1 B, MRC-5 (IL-6 production) | item: Antibody A4 (antibody, V domains shown) VH: QVQLVQSGAEVKKPGASVKVSCKATGYTFTDYWIAWVRQAPGQGLEWMGSIFPGGDYTNYNEKFKGRVTMTRDTSTSTSYMELSSLRSEDTAVYYCARPYYSNYGHFDYWGQGTLVTVSS VL: EIVLTQSPATLSLSPGERATLSCRASESVDNSGIGFMNWYQQKPGQAPRLLIYAASNQGSGIPARFSGSGSGTDFTLTISRLEPEDFAVYYCQQNKELPWTFGQGTKLEIK
0.016
